- method-notes: protein stability index of a GFP-peptide fusion (GPS, HEK-293T) (PSI 1-6); higher = more stable;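 further: 24-mer peptide tiles fused after GFP, lentivirally expressed, FACS-sorted into six equal bins by GFP/DsRed ratio, decoded by Illumina sequencing, PSI is the read-weighted mean bin number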
- experimental-parameters: treatment: DMSO; c terminus: a fixed tail appended
measured-endpoint: protein stability index
Lab note: write the figure by itself, no unit.

Examples from the recorded data:
sequence-chain | measured-endpoint | value
TALVTVSSEEFEDKWFRKIKDHFC [C8orf76] | protein stability index | 2.33
TLSRPPPAQVPREVLKVQTHLENP [TFE3] | protein stability index | 4.3
YFALRKILKQLIADVTLDPETAHP [TRIM39] | protein stability index | 4.09
IERCIFPERIYQGSSGSYFVKDPQ [PI4K2A] | protein stability index | 3.25
EPAARISPLGALQHGFFRRTADEA [DYRK1B] | protein stability index | 4.08
HQDLKYISPETMVALLTGKFSNIV [CDC25B] | protein stability index | 2.23

*Q* State the recorded protein stability index for this entry: MRSGEPACTMDQARGLDDAAARGG [ZBED3]
*A* 5

*Q* State the recorded protein stability index for this entry: LEDAAGGDSASEEKSGSAEPFVLP [FBXO34]
*A* 5.46

*Q* State the recorded protein stability index for this entry: ILTATVDNANILLQIDNARLAADD [KRT17]
*A* 3.29

*Q* State the recorded protein stability index for this entry: RGAPAVQQNIPSTLLQDHENQRLF [WAS]
*A* 4.25

*Q* State the recorded protein stability index for this entry: RVQVLKNEVRRGSPVLLGWVEQAY [TIAF1]
*A* 2.37

*Q* State the recorded protein stability index for this entry: QGVISQLEDTCKTIEECCRKQKQE [TRIM55]
*A* 5.2

*Q* State the recorded protein stability index for this entry: GKDSRWLPSLVLARLVFVPLLLLC [SLC29A1]
*A* 2.68

*Q* State the recorded protein stability index for this entry: EVLLGTPYDLAIDMWSLGCILVEM [DYRK1B]
*A* 2.79

*Q* State the recorded protein stability index for this entry: LDVGATEGQDLQHISNQKMPTGPP [DRICH1]
*A* 5.18

*Q* State the recorded protein stability index for this entry: TIQKGSYTFVPWLLSFKRGSALEE [TNFSF13B]
*A* 2.11

*Q* State the recorded protein stability index for this entry: YESSADIAGDEGTQIPADEDTQTD [TAF7L]
*A* 5.61

*Q* State the recorded protein stability index for this entry: PTEQVNELVALIPHSDQRLRPQRT [TMEM106C]
*A* 4.63

====

- method-notes: protein stability index of a GFP-peptide fusion (GPS, HEK-293T) (PSI 1-6); higher = more stable
- experimental-parameters: treatment: DMSO; c terminus: a fixed tail appended
measured-endpoint: protein stability index
Lab note: write the figure by itself, no unit.

sequence-chain | protein stability index
TPVPTITANVTSVPVPPAAAPPPP [BRD3] | 4.92
GEGRKSRKFSRLSCLRRRRHPPKV [SMG5] | 3.69
KKIPIISNAMLVGDKLKFLSMLLT [ACSBG2] | 2.3

*Q* State the recorded protein stability index for this entry: MRATPLAAPAGSLSRKKRLELDDN [TRIB3]
*A* 4.57

*Q* State the recorded protein stability index for this entry: LPVPPTPGLLSLATTSASDSLKPE [TFE3]
*A* 4.87

*Q* State the recorded protein stability index for this entry: KTDFGSCLLQPPSCPNGMSAENGL [DLC1]
*A* 3.94

*Q* State the recorded protein stability index for this entry: LVALKCTCCYFKFIIEYYNIRPAD [FBXO34]
*A* 2.69

*Q* State the recorded protein stability index for this entry: VQEQQKQLQDQDQKLLEQTQIIGE [FBXO28]
*A* 5.43

====

// reported protein stability index for each item listed
- method-notes: protein stability index of a GFP-peptide fusion (GPS, HEK-293T) (PSI 1-6); higher = more stable
- experimental-parameters: treatment: MLN4924 1 uM, 8 h; c terminus: a fixed tail appended
Lab note: write the figure by itself, no unit.

sequence-chain | protein stability index
GLKLIQIQDNGTGIRKEDLDIVCE [MLH1] | 3.87
EAPEAELSQAPAEGPDLVPAALGS [HES6] | 5.41
LSINRYERKKNLTLALEALVQLRG [ALG2] | 2.09
LEAIRKQDLVELYLTNCEKLSAKS [ZER1] | 3.11
QEDSGLRDHSVRVLISNHVTPFDH [AUP1] | 3.67
VRHEGTRTLWSGLPATLVMTVPAT [SLC25A39] | 2.27
AIFSAPAFPAAVSSMKKFCRPLLP [PSD2] | 2.3
EQGKPVIPAAVLAGFTGSGPIQLW [ETS2] | 2.54
GRSGPGCAVLDDSIYLVGGYSWSM [KLHL14] | 2.38
ELLDLKAGGFSIRNQKGEQVFRLA [MYORG] | 2.24

*Q* State the recorded protein stability index for this entry: LEEQGATWRHRETLIIAVLVSASI [FATE1]
*A* 2.7

*Q* State the recorded protein stability index for this entry: RCGVPDVAQFVLTEGNPRWEQTHL [MMP1]
*A* 2.3

*Q* State the recorded protein stability index for this entry: GNTVPAVEPGTPPLDILAQPLEAS [DNAAF3]
*A* 5.03

*Q* State the recorded protein stability index for this entry: TVKMLRTQRPAMVQTEDQYQFSYR [PTPRD]
*A* 2.97

*Q* State the recorded protein stability index for this entry: QAQIHGLPVPPTPGLLSLATTSAS [TFE3]
*A* 3.87

*Q* State the recorded protein stability index for this entry: TDLAQQQGGGNGQQQQAMSFAILR [KCNA4]
*A* 3.81

*Q* State the recorded protein stability index for this entry: KKDKDISKEKDTQNQNITLDCEGT [KMT2E]
*A* 5.49

*Q* State the recorded protein stability index for this entry: IMDTVGNIWVCYASYVVFRIIYML [SLC19A2]
*A* 3.12

*Q* State the recorded protein stability index for this entry: SNDGARRQFEFYLEEMILPLMVAS [BTBD10]
*A* 2.2

====

- method-notes: protein stability index of a GFP-peptide fusion (GPS, HEK-293T) (PSI 1-6); higher = more stable
- experimental-parameters: treatment: DMSO; c terminus: native
Mark fulfilled for reported protein stability index of 4 or greater; mark not fulfilled for anything smaller.

Answered examples (2):
sequence-chain | class-name
IITRHNLTYEFLQARLRQHYQTI [CLCN6] | not fulfilled
WTNRLCHQEMGSKKTVTQEDRGW [SPAG8] | not fulfilled

*Q* Reported protein stability index reaches at least 4 for GGMALGVAGLAGLIGLAVSKSKS [FIS1] ?
*A* not fulfilled

*Q* Reported protein stability index reaches at least 4 for ASSPGNPTALANGTVQAPKQKGD [LPCAT4] ?
*A* fulfilled

*Q* Reported protein stability index reaches at least 4 for ELPPSLRAPPPGGWPLQPRVQWG [ZMAT5] ?
*A* not fulfilled

*Q* Reported protein stability index reaches at least 4 for NPALQLILTRTDKTLNKKLGQNK [TOR1AIP2] ?
*A* not fulfilled

*Q* Reported protein stability index reaches at least 4 for MAFFLCLGLALGAVFSFLFRAIV [SLC29A1] ?
*A* fulfilled

*Q* Reported protein stability index reaches at least 4 for LFCAPGSWEWNELDHIMEIILGS [SERTAD3] ?
*A* not fulfilled

====

// reported protein stability index for each item listed
- method-notes: protein stability index of a GFP-peptide fusion (GPS, HEK-293T) (PSI 1-6); higher = more stable
- experimental-parameters: treatment: MLN4924 1 uM, 8 h; c terminus: a fixed tail appended
Lab note: write the figure by itself, no unit.

sequence-chain | protein stability index
SGLEKEVQRLTSRAARDYKIQNHG [FCHSD1] | 3.61
CLVFELLSYNLYDLLRNTHFRGVS [DYRK1B] | 3.3

*Q* State the recorded protein stability index for this entry: PSVRKKAGSFSRRLIKRFSFKSKP [C2CD2L]
*A* 3.35

*Q* State the recorded protein stability index for this entry: TMELRNYFSLYCLHQETQLIHVYL [SNX8]
*A* 2.94

*Q* State the recorded protein stability index for this entry: LQLPQLSDLGLLRLCTWLLALSPD [FANCE]
*A* 2.37

====

- method-notes: protein stability index of a GFP-peptide fusion (GPS, HEK-293T) (PSI 1-6); higher = more stable
- experimental-parameters: treatment: MLN4924 1 uM, 8 h; c terminus: a fixed tail appended
measured-endpoint: protein stability index
Lab note: write the figure by itself, no unit.

sequence-chain | value
QLGDLHTCLMMDMKACQEDDVRLL [INTS3] | 3.56
DLDRMGVMTLPSDLRKHRRKLLSP [PPFIA4] | 3.73
HAVVGVATALAPLQTDHYAALLGS [SPSB2] | 2.29
NESRRQIQSLTCEVDGLRGTNEAL [PRPH] | 5.11

Please look at the following sequence next.
*Q* State the recorded protein stability index for this entry: IYKLEEHEEFFPAFQAFTNDLLEI [CEP70]
*A* 2.39

FYI, the data here is from the supplement of paper PMC10567573.
